# Affinity to Dopamine Receptors (% Inhibition) D1 per record follows
experimental_system: dopamine D1 receptor (Homo sapiens)
assay_notes: Binding affinity to cloned human dopamine receptors (radioligand displacement), D1
experimental_parameters: 1 µM test compound
Method: Experimental Example: Test for the Binding Affinity to Dopamine Receptor Binding affinities of the compounds for dopamine receptors were determined indirectly by their ability to displace radiolabeled ligand from cloned human dopamine receptors. Compounds were incubated in receptor suspension to compete with the radiolabeled ligand. […] The radioactivity bound to filter was counted by Micro-P counter (Wallac). […]
Return type: number; implicit unit %.

Example entries begin here.
Fc1ccccc1N1CCN(CCCCc2cc(/C=C/c3ccccc3)no2)CC1 ... 75.8
c1ccc(N2CCN(CCCCc3cc(-c4cccs4)no3)CC2)cc1 ... 52.9

// switching to the query compound
Query C(=C\c1cc(CCCCN2CCN(c3ccccc3)CC2)on1)/c1ccccc1 yields Affinity to Dopamine Receptors (% Inhibition) D1 of 75.2

---

experimental_system: dopamine D3 receptor (Homo sapiens, UniProt P35462)
Sequence (P35462 whole entry): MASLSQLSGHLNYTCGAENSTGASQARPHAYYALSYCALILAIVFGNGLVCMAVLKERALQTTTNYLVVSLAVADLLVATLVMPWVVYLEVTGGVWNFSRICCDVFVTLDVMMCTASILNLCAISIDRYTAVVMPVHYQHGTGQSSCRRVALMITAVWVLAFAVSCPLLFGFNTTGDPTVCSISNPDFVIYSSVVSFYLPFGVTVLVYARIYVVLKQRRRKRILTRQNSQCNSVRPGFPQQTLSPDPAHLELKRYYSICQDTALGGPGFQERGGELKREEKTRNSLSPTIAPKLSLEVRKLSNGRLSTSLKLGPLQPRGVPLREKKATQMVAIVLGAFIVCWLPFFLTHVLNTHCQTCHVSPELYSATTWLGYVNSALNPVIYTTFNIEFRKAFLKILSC
assay_notes: Binding affinity to cloned human dopamine receptors (radioligand displacement), D3
experimental_parameters: 1 µM test compound
Experimental: Experimental Example: Test for the Binding Affinity to Dopamine Receptor Binding affinities of the compounds for dopamine receptors were determined indirectly by their ability to displace radiolabeled ligand from cloned human dopamine receptors. Compounds were incubated in receptor suspension to compete with the radiolabeled ligand. […] The radioactivity bound to filter was counted by Micro-P counter (Wallac). […]
# Affinity to Dopamine Receptors (% Inhibition) D3 per record follows
Mention the unit after the number when you answer.

Example entries begin here.
CCOc1ccccc1N1CCN(CCCc2cc(-c3ccc(F)cc3)no2)CC1 [Compound No. 20] ... 89.4%
c1ccc(N2CCN(CCCCc3cc(-c4cccs4)no3)CC2)cc1 [Compound No. 33] ... 104.4%
COc1ccccc1N1CCN(CCCCc2cc(-c3ccc(F)cc3)no2)CC1 [Compound No. 37] ... 112.5%
COc1ccc(-c2cc(CCCN3CCN(c4ccccc4)CC3)on2)c(OC)c1 [Compound No. 32] ... 100.1%

Query C(=C\c1cc(CCCCN2CCN(c3ccccc3)CC2)on1)/c1ccccc1 [Compound No. 36] yields Affinity to Dopamine Receptors (% Inhibition) D3 of 107.9%

Query CCOc1ccccc1N1CCN(CCCCc2cc(-c3ccccc3)no2)CC1 [Compound No. 54] yields Affinity to Dopamine Receptors (% Inhibition) D3 of 101.8%

Query COc1ccc(-c2cc(CCCCN3CCN(c4ccccc4OC)CC3)on2)cc1OC [Compound No. 39] yields Affinity to Dopamine Receptors (% Inhibition) D3 of 105.1%

Query C(=C\c1cc(CCCCN2CCN(C(c3ccccc3)c3ccccc3)CC2)on1)/c1ccccc1 [Compound No. 29] yields Affinity to Dopamine Receptors (% Inhibition) D3 of 102.4%

---

experimental_system: dopamine D2 receptor (Homo sapiens)
Sequence (P14416 whole entry): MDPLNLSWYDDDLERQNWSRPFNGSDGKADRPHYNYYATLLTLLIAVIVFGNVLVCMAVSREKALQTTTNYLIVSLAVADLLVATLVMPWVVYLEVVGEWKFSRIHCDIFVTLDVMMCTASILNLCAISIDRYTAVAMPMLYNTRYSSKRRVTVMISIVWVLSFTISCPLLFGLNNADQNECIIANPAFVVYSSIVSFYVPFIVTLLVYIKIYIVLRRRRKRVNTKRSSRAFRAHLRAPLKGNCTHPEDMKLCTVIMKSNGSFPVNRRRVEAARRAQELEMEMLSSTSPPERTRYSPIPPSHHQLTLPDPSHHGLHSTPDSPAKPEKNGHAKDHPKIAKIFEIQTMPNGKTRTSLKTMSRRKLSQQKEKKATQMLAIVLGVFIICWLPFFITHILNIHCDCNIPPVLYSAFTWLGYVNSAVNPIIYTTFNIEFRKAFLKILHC
assay_notes: Binding affinity to cloned human dopamine receptors (radioligand displacement), D2
measure_name: IC50 (nM)
Return type: number; implicit unit nM.

Example entries begin here.
COc1ccc(-c2cc(CCCCN3CCN(c4ccccc4OC)CC3)on2)cc1OC ... 1900
CCOc1ccccc1N1CCN(CCCCc2cc(-c3cccs3)no2)CC1 ... 880
CCOc1ccccc1N1CCN(CCCCc2cc(-c3ccccc3)no2)CC1 ... 1550
COc1ccc(-c2cc(CCCN3CCN(c4ccccc4)CC3)on2)c(OC)c1 ... 9980
c1ccc(N2CCN(CCCCc3cc(-c4cccs4)no3)CC2)cc1 ... 18800

// switching to the query compound
Query Fc1ccccc1N1CCN(CCCCc2cc(/C=C/c3ccccc3)no2)CC1 yields IC50 of 2660

---

experimental_system: dopamine D3 receptor (Homo sapiens)
assay_notes: Binding affinity to cloned human dopamine receptors (radioligand displacement), D3
# pIC50 per record follows
The scale used: pIC50 is minus the common logarithm of the concentration in molar units.

COc1ccc(-c2cc(CCCN3CCN(c4ccccc4)CC3)on2)c(OC)c1 ... 7.42

Query COc1ccc(-c2cc(CCCCN3CCN(c4ccccc4OC)CC3)on2)cc1OC yields pIC50 of 7.92

Query CCOc1ccccc1N1CCN(CCCCc2cc(-c3ccccc3)no2)CC1 yields pIC50 of 7.68

Query c1ccc(N2CCN(CCCCc3cc(-c4cccs4)no3)CC2)cc1 yields pIC50 of 7.46

---

experimental_system: dopamine D4 receptor (Homo sapiens)
Sequence (P21917 whole entry): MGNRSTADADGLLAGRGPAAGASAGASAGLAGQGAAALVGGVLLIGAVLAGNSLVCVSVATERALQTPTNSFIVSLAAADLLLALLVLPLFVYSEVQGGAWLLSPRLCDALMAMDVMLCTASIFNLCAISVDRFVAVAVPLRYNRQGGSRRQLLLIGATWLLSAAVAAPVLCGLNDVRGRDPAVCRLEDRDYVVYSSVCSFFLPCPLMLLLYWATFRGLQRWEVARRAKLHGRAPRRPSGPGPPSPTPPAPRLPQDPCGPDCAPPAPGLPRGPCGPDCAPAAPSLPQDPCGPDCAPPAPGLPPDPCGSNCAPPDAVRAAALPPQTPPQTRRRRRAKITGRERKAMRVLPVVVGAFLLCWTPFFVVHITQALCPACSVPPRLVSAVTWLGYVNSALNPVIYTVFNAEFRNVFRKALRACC
assay_notes: Binding affinity to cloned human dopamine receptors (radioligand displacement), D4
Simple rule here: IC50 less than 100 nM is Y, otherwise N.

Example cases with answers are listed next.
CCOc1ccccc1N1CCN(CCCCc2cc(-c3cccs3)no2)CC1 ... Y
COc1ccc(-c2cc(CCCN3CCN(c4ccccc4)CC3)on2)c(OC)c1 ... N
Fc1ccccc1N1CCN(CCCCc2cc(/C=C/c3ccccc3)no2)CC1 ... Y
c1ccc(N2CCN(CCCCc3cc(-c4cccs4)no3)CC2)cc1 ... N

QUERY: Given CCOc1ccccc1N1CCN(CCCCc2cc(-c3ccccc3)no2)CC1 , is recorded IC50 strictly lower than 100 nM?
RESULT: Y

QUERY: Given COc1ccc(-c2cc(CCCCN3CCN(c4ccccc4OC)CC3)on2)cc1OC , is recorded IC50 strictly lower than 100 nM?
RESULT: N

---

experimental_system: dopamine D1 receptor (Homo sapiens, UniProt P21728)
Sequence (P21728 whole entry): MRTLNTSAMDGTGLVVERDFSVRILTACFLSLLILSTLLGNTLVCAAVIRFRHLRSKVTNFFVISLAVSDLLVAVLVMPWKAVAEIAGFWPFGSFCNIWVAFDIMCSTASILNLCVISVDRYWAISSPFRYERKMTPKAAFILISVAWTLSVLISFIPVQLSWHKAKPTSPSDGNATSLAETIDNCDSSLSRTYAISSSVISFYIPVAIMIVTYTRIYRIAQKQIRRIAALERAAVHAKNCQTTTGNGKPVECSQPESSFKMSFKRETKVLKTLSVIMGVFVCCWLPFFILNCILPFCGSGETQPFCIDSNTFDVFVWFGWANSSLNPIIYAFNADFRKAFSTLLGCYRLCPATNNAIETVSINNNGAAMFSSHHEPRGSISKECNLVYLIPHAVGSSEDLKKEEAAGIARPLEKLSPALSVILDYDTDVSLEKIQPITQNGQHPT
assay_notes: Binding affinity to cloned human dopamine receptors (radioligand displacement), D1
# IC50 per record follows
Return type: number; implicit unit nM.

COc1ccc(-c2cc(CCCCN3CCN(c4ccccc4OC)CC3)on2)cc1OC ... 2880
c1ccc(N2CCN(CCCCc3cc(-c4cccs4)no3)CC2)cc1 ... 310

// switching to the query compound
Query COc1ccc(-c2cc(CCCN3CCN(c4ccccc4)CC3)on2)c(OC)c1 yields IC50 of 110

---

experimental_system: dopamine D1 receptor (Homo sapiens)
assay_notes: Binding affinity to cloned human dopamine receptors (radioligand displacement), D1
experimental_parameters: 1 µM test compound
Protocol: Experimental Example: Test for the Binding Affinity to Dopamine Receptor Binding affinities of the compounds for dopamine receptors were determined indirectly by their ability to displace radiolabeled ligand from cloned human dopamine receptors. Compounds were incubated in receptor suspension to compete with the radiolabeled ligand. […] The radioactivity bound to filter was counted by Micro-P counter (Wallac). […]
measure_name: Affinity to Dopamine Receptors (% Inhibition) D1 (%)
Return type: number; implicit unit %.

Example entries begin here.
COc1ccccc1N1CCN(CCCCc2cc(-c3ccc(F)cc3)no2)CC1 ... 52.2
COc1ccc(-c2cc(CCCN3CCN(c4ccccc4)CC3)on2)c(OC)c1 ... 70
COc1ccc(-c2cc(CCCCN3CCN(c4ccccc4OC)CC3)on2)cc1OC ... 23.9

Query C(=C\c1cc(CCCCN2CCN(C(c3ccccc3)c3ccccc3)CC2)on1)/c1ccccc1 yields Affinity to Dopamine Receptors (% Inhibition) D1 of 32.6
